- TARGET SYSTEM: HLA B*5801 (Homo sapiens, UniProt P01889, A329T/C349S/D201E/D98Y/E176V/E187L/E204Q/E69T/G107R/I218V/I90N/K202T/L105A/L119I/N104I/N87E/Q89R/Q94S/R106L/R155S/R180L/R86G/S101N/S121R/S35A/S48A/T118I/V127L/V306I/V36M/Y140S/Y91M)
- Format: binding
Item-by-item account of Normalized average relative binding affinity(ARB)
A bare number is all that is needed in reply.

Q: What Normalized average relative binding affinity(ARB) value was documented for this sequence, XXXXXXXIX [3064.0148] ?
A: 0.39

Q: What Normalized average relative binding affinity(ARB) value was documented for this sequence, XXXXXXIXX [3064.0128] ?
A: 0.65

Q: What Normalized average relative binding affinity(ARB) value was documented for this sequence, XXXXCXXXX [3064.0082] ?
A: 0.14

Q: What Normalized average relative binding affinity(ARB) value was documented for this sequence, XXXXXXAXX [3064.0121] ?
A: 0.0045

Q: What Normalized average relative binding affinity(ARB) value was documented for this sequence, XXXXXXXNX [3064.0152] ?
A: 0.25

Q: What Normalized average relative binding affinity(ARB) value was documented for this sequence, XXXXXXPXX [3064.0133] ?
A: 0.22

Q: What Normalized average relative binding affinity(ARB) value was documented for this sequence, XXXXXXXRX [3064.0155] ?
A: 0.13

Q: What Normalized average relative binding affinity(ARB) value was documented for this sequence, XXXXGXXXX [3064.0086] ?
A: 0.38

* * *

- TARGET SYSTEM: HLA B*5101 (Homo sapiens, UniProt P01889, A329T/A93T/A95T/C349S/D138N/D201E/D98Y/E187L/E204Q/E69T/G107R/I218V/K202T/L105A/L119W/N104I/Q94N/R106L/R155S/R180L/S101N/S121T/S35A/S48A/V306I/V36M/Y195H/Y91F)
- Type: binding
OBSERVED PROPERTY: Normalized average relative binding affinity(ARB)
A bare number is all that is needed in reply.

XXXXXXXCX [3064.0142]; 0.38
XXXXXXXMX [3064.0151]; 0.32
XXXXXHXXX [3064.0107]; 0.33

Q: What Normalized average relative binding affinity(ARB) value was documented for this sequence, XXXXXXXDX [3064.0143] ?
A: 0.17

Q: What Normalized average relative binding affinity(ARB) value was documented for this sequence, XXXXXXXQX [3064.0154] ?
A: 0.32

Q: What Normalized average relative binding affinity(ARB) value was documented for this sequence, XXXXXVXXX [3064.0118] ?
A: 0.20

Q: What Normalized average relative binding affinity(ARB) value was documented for this sequence, XXXXEXXXX [3064.0084] ?
A: 0.20

Q: What Normalized average relative binding affinity(ARB) value was documented for this sequence, XXXXXXTXX [3064.0137] ?
A: 0.58

* * *

- TARGET SYSTEM: HLA B*5301 (Homo sapiens, UniProt P01889, A329T/A93T/A95T/C349S/D201E/D98Y/E176V/E187L/E204Q/E69T/G107R/I218V/K202T/L105A/L119I/N104I/Q94N/R106L/R155S/R180L/S101N/S121R/S35A/S48A/T118I/V127L/V306I/V36M/Y140S/Y91F)
- Format: binding
Item-by-item account of Normalized average relative binding affinity (ARB), HLA B*5301

// solved cases for Normalized average relative binding affinity (ARB), HLA B*5301 follow
XPXXXXXXX [3064.0033]; 1.0
XXEXXXXXX [3064.0044]; 0.031
XXDXXXXXX [3064.0043]; 0.096
QXXXXXXXX [3064.0014]; 0.021
XXFXXXXXX [3064.0045]; 0.19
XXHXXXXXX [3064.0047]; 0.059
XXAXXXXXX [3064.0041]; 0.0065

Q: What Normalized average relative binding affinity (ARB), HLA B*5301 value was documented for this sequence, XXKXXXXXX [3064.0049] ?
A: 0.019

* * *

Item-by-item account of pIC50
- TARGET SYSTEM: HLA A*3001 (Homo sapiens, UniProt P04439, D140H/D185E/E176W/F33S/G80R/H175R/K168Q/R138E/R41S)
- PROTOCOL DETAILS: biochemical
Where a SMILES comes first, the peptide text is derived from it.
Scale: negative log10 of molar concentration, which is what pIC50 denotes.

CC(C)[C@H](NC(=O)[C@@H](N)CO)C(=O)N[C@@H](CCCCN)C(=O)N[C@@H](CS)C(=O)N[C@@H](CCC(N)=O)C(=O)N[C@@H](CO)C(=O)N1CCC[C@H]1C(=O)N1CCC[C@H]1C(=O)N[C@@H](CO)C(=O)O [3102.0135] (H-SVKCQSPPS-OH); 7.77

Q: What pIC50 value was documented for this compound, CC[C@H](C)[C@H](NC(=O)[C@H](Cc1ccccc1)NC(=O)[C@H](CCCCN)NC(=O)CNC(=O)[C@H](CCC(N)=O)NC(=O)[C@H](CCCNC(=N)N)NC(=O)[C@@H](NC(=O)[C@@H](N)CCCNC(=N)N)[C@@H](C)CC)C(=O)N[C@@H](CCCCN)C(=O)O [3102.0028] (H-RIRQGKFIK-OH) ?
A: 8.32

Q: What pIC50 value was documented for this compound, CC[C@H](C)[C@H](NC(=O)[C@H](CCCCN)NC(=O)[C@H](CO)NC(=O)[C@@H](NC(=O)[C@@H](NC(=O)[C@H](CCCCN)NC(=O)[C@H](CCCNC(=N)N)NC(=O)[C@@H](NC(=O)[C@@H](N)CCCCN)C(C)C)[C@@H](C)CC)[C@@H](C)CC)C(=O)O [3102.0153] (H-KVRKIISKI-OH) ?
A: 7.57

Q: What pIC50 value was documented for this compound, CC[C@H](C)[C@H](NC(=O)[C@H](CO)NC(=O)[C@@H](NC(=O)[C@H](CCC(N)=O)NC(=O)[C@H](CCCCN)NC(=O)[C@@H](NC(=O)[C@@H](N)CCCNC(=N)N)C(C)C)[C@@H](C)CC)C(=O)N[C@@H](CO)C(=O)N[C@H](C(=O)O)[C@@H](C)O [3102.0166] (H-RVKQISIST-OH) ?
A: 9.43

* * *

Item-by-item account of IC50
- TARGET SYSTEM: HLA B*0801 (Homo sapiens, UniProt P01889, A93T/A95T/D138N/E176V/E187T/K202T/Q94N/R180D/S35A/V36M/Y33D/Y91F)
- PROTOCOL DETAILS: biochemical
Where a SMILES comes first, the peptide text is derived from it.
Write the number in nM without appending the unit.

// solved cases for IC50 follow
CC(C)C[C@H](NC(=O)[C@H](CCCNC(=N)N)NC(=O)[C@@H](NC(=O)[C@H](Cc1ccccc1)NC(=O)[C@H](Cc1c[nH]cn1)NC(=O)CNC(=O)[C@H](CCCCN)NC(=O)[C@H](CC(N)=O)NC(=O)[C@@H](N)Cc1ccccc1)[C@@H](C)O)C(=O)O [3102.0610] (H-FNKGHFTRL-OH); 16
CSCC[C@H](N)C(=O)N[C@@H](Cc1ccc(O)cc1)C(=O)N[C@@H](CCCCN)C(=O)N[C@@H](CO)C(=O)N[C@@H](CCCNC(=N)N)C(=O)N[C@H](C(=O)N[C@@H](CCC(=O)O)C(=O)N[C@@H](CCCNC(=N)N)C(=O)N[C@H](C(=O)O)C(C)C)C(C)C [3102.0607] (H-MYKSRVERV-OH); 47

Please find the next compound below.
Q: What IC50 value was documented for this compound, CSCC[C@H](NC(=O)[C@@H](N)CC(C)C)C(=O)N[C@@H](Cc1ccccc1)C(=O)N[C@@H](CCCCN)C(=O)N[C@@H](Cc1c[nH]cn1)C(=O)N[C@@H](CC(C)C)C(=O)N[C@@H](CC(C)C)C(=O)N[C@@H](Cc1c[nH]cn1)C(=O)N1CCC[C@H]1C(=O)O [3102.0908] (H-LMFKHLLHP-OH) ?
A: 1

* * *

- TARGET SYSTEM: HLA B*0801 (Homo sapiens, UniProt P01889, A93T/A95T/D138N/E176V/E187T/K202T/Q94N/R180D/S35A/V36M/Y33D/Y91F)
- PROTOCOL DETAILS: biochemical
- Assay type: binding
Rule: measured Normalized average relative binding affinity (ARB), HLA B*0801 below 0.2 gets TRUE; anything equal to or greater than 0.2 gets FALSE.

Please review the following examples before continuing.
XXMXXXXXX [3064.0051]; FALSE
SXXXXXXXX [3064.0016]; FALSE
XFXXXXXXX [3064.0025]; TRUE

Q: Determine whether this sequence shows Normalized average relative binding affinity (ARB), HLA B*0801 lower than 0.2 (ties excluded): XTXXXXXXX [3064.0037]
A: TRUE

Q: Determine whether this sequence shows Normalized average relative binding affinity (ARB), HLA B*0801 lower than 0.2 (ties excluded): XXXAXXXXX [3064.0061]
A: FALSE

Q: Determine whether this sequence shows Normalized average relative binding affinity (ARB), HLA B*0801 lower than 0.2 (ties excluded): LXXXXXXXX [3064.0010]
A: FALSE

Q: Determine whether this sequence shows Normalized average relative binding affinity (ARB), HLA B*0801 lower than 0.2 (ties excluded): XNXXXXXXX [3064.0032]
A: TRUE

Q: Determine whether this sequence shows Normalized average relative binding affinity (ARB), HLA B*0801 lower than 0.2 (ties excluded): HXXXXXXXX [3064.0007]
A: TRUE

Q: Determine whether this sequence shows Normalized average relative binding affinity (ARB), HLA B*0801 lower than 0.2 (ties excluded): XXQXXXXXX [3064.0054]
A: TRUE

Q: Determine whether this sequence shows Normalized average relative binding affinity (ARB), HLA B*0801 lower than 0.2 (ties excluded): XXGXXXXXX [3064.0046]
A: TRUE

Q: Determine whether this sequence shows Normalized average relative binding affinity (ARB), HLA B*0801 lower than 0.2 (ties excluded): XXRXXXXXX [3064.0055]
A: FALSE

Q: Determine whether this sequence shows Normalized average relative binding affinity (ARB), HLA B*0801 lower than 0.2 (ties excluded): XXTXXXXXX [3064.0057]
A: TRUE

Q: Determine whether this sequence shows Normalized average relative binding affinity (ARB), HLA B*0801 lower than 0.2 (ties excluded): XXXCXXXXX [3064.0062]
A: FALSE

Q: Determine whether this sequence shows Normalized average relative binding affinity (ARB), HLA B*0801 lower than 0.2 (ties excluded): MXXXXXXXX [3064.0011]
A: FALSE

Q: Determine whether this sequence shows Normalized average relative binding affinity (ARB), HLA B*0801 lower than 0.2 (ties excluded): NXXXXXXXX [3064.0012]
A: FALSE
